FYI, the data here is from ChEMBL document CHEMBL1201862.

System: OVCAR-5
Assay: NCI tumour cell line growth inhibition, 48 h
Active and inactive are the calls of the source. Cut-off read from the data, not from the text of the source: active = GI50 up to about 1.1 µM and inactive = higher. Square brackets hold non-standard residues; d marks the D form. Peptide text beside a SMILES is read from it. * marks the point of attachment. ξ: configuration not given here. ξF = NC(Cc1ccccc1)C(=O)O; Cbz = O=C(OCc1ccccc1)*; Aib = CC(C)(N)C(=O)O
Please state which outcome applies, choosing from label 1 for active, label 0 for inactive

# count of solved cases: 6
> print(dat)
                                   compound  category.label
1  C=C1C(=O)O[C@@H]2C[C@@]3(C)CCC[C@H](C)C3=C[C@H]12         label 0
2   CCOC(=O)Nc1cc2c(c(N)n1)N=C(c1ccccc1)CN2         label 1
3  COc1cc(C2c3cc4c(cc3OC(N3CCOCC3)C2C)OCO4)cc(OC)c1O (centres undefined)         label 0
4                  CC(=O)OI1NC(=O)c2ccccc21         label 0
5             CCOP(=O)(OCC)/C(F)=C/c1ccccc1         label 0
6  CC(=O)O[C@H]1C[C@H]2[C@@H]([C@H](OC(C)=O)C[C@@H]3CC4(CC[C@@]32C)OOC2(CCCCC2)OO4)[C@@H]2CC[C@H]([C@H](C)CCC(N)=O)[C@@]12C         label 0

query: Which outcome was entered for the compound CC(C)(NC(=O)OCc1ccccc1)C(=O)NC(Cc1ccccc1)C(=O)O (centres undefined) (Cbz-[Aib]-[ξF]-OH) in this test?
result: label 0

query: Which outcome was entered for the compound `CCN1CCN(c2nc3ccc([N+](=O)[O-])cc3nc2C(=O)c2ccccc2)CC1` in this test?
result: label 0

query: Which outcome was entered for the compound `O=C(O)/C=C/n1c2ccccc2c(=O)c2ccccc21` in this test?
result: label 0
